- experimental_target: Tyrosine-protein phosphatase non-receptor type 2 (Homo sapiens, UniProt P17706)
- Sequence (P17706 whole entry): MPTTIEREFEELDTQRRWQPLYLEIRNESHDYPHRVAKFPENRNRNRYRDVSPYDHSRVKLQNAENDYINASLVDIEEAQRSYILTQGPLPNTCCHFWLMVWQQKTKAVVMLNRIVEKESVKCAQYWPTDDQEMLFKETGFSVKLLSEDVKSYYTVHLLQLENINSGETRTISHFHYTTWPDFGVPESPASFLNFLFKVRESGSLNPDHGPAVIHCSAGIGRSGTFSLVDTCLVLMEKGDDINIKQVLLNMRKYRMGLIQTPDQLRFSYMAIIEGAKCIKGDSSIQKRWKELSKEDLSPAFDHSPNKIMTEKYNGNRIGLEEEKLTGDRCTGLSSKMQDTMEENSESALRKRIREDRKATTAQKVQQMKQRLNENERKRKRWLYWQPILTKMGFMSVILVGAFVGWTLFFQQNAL
- procedure_summary: Inhibition of TCPTP (unknown origin) using pNPP as substrate incubated for 30 mins by spectrophotometry
Kindly state pIC50 for each of the entries shown.
Friendly reminder that pIC50 comes from taking -log10 of the concentration in mol/L.

The measured pIC50 associated with `O=C(/C=C/c1cc(O)c(O)c(Br)c1Br)c1cccc(C(F)(F)F)c1` reads 4.87

What the record says about `COc1ccc(C(=O)/C=C/c2cc(O)c(O)c(Br)c2Br)cc1Br` : pIC50 is 5.43

Recorded pIC50 (compound `CCOc1ccc(Oc2ccc(C(=O)/C=C/c3cc(O)c(O)c(Br)c3Br)cc2)cc1` ): 4.80

Entry `Cc1ccc(C(=O)/C=C/c2cc(O)c(O)c(Br)c2Br)cc1` , pIC50 reported as 4.99

// field: pIC50; key: `CCOc1ccc(C(=O)/C=C/c2cc(O)c(O)c(Br)c2Br)cc1` ; value = 4.76
